Measured response values are reported for all entries that follow.
B1: OX1R-EGFP [human] / 5-HT1AR-Rluc [human] (parent)
chain 1: MEPSATPGAQMGVPPGSREPSPVPPDYEDEFLRYLWRDYLYPKQYEWVLIAAYVAVFVVALVGNTLVCLAVWRNHHMRTVTNYFIVNLSLADVLVTAICLPASLLVDITESWLFGHALCKVIPYLQAVSVSVAVLTLSFIALDRWYAICHPLLFKSTARRARGSILGIWAVSLAIMVPQAAVMECSSVLPELANRTRLFSVCDERWADDLYPKIYHSCFFIVTYLAPLGLMAMAYFQIFRKLWGRQIPGTTSALVRNWKRPSDQLGDLEQGLSGEPQPRARAFLAEVKQMRARRKTAKMLMVVLLVFALCYLPISVLNVLKRVFGMFRQASDREAVYACFTFSHWLVYANSAANPIIYNFLSGKFREQFKAAFSCCLPGLGPCGSLKAPSPRSSASHKSLSLQSRCSISKISEHVVLTSVTTVLP
chain 2: MDVLSPGQGNNTTSPPAPFETGGNTTGISDVTVSYQVITSLLLGTLIFCAVLGNACVVAAIALERSLQNVANYLIGSLAVTDLMVSVLVLPMAALYQVLNKWTLGQVTCDLFIALDVLCCTSSILHLCAIALDRYWAITDPIDYVNKRTPRRAAALISLTWLIGFLISIPPMLGWRTPEDRSDPDACTISKDHGYTIYSTFGAFYIPLLLMLVLYGRIFRAARFRIRKTVKKVEKTGADTRHGASPAPQPKKSVNGESGSRNWRLGVESKAGGALCANGAVRQGDDGAALEVIEVHRVGNSKEHLPLPSEAGPTPCAPASFERKNERNAEAKRKMALARERKTVKTLGIIMGTFILCWLPFFIVALVLPFCESSCHMPTLLGAIINWLGYSNSLLNPVIYAYFNKDFQNAFKKIIKCKFCRQ

- Variants of: B1
- assay.name: BRET
- assay.context: with 5-HT1AR-Rluc [human]; HEK293 cells, basal (no agonist); parent: 0.27; read off a plot
observed.property: response

- chain 1 L225A: 0.23
- chain 1 M176A: 0.15
- chain 1 R160A: 0.27
- chain 1 L230A: 0.21
